Hi there, I'd appreciate the recorded ka2 for every entry that follows.
biological target: T1, recombinant human VEGF165 (human, UniProt P15692-4 27-191, biotinylated in the competition assays); assay: SPR Biacore, immobilised hVEGF165, two state reaction model
T1 construct: Bought protein; also called hVEGF165; rhVEGF165
T1 sequence (P15692 other isoform, or with tags, fused parts or gaps): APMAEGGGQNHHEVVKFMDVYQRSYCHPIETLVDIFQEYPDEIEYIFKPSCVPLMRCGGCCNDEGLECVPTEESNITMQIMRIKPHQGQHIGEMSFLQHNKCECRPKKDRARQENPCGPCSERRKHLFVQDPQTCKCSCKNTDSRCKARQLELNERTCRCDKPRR
# output: bare number, implied unit s⁻¹

Which value of ka2 has been reported for VEGFBII021 (VHH, not shown: small tags and cut ends, Bivalent (heterodimeric) anti-VEGF VHH; also called VEGFBII23B04-40GS-5B05) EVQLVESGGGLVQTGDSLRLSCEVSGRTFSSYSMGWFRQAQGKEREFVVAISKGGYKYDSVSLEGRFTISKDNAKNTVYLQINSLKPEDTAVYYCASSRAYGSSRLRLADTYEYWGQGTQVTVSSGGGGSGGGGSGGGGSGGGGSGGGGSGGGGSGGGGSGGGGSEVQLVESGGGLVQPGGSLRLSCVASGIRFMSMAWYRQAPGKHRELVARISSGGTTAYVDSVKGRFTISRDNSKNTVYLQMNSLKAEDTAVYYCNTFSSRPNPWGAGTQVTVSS in the records?
0.023

Name the reported ka2 value associated with the binder VEGFBII025 (VHH, not shown: small tags and cut ends, Bivalent anti-VEGF VHH; also called VEGFBII10E07-40GS-23B04) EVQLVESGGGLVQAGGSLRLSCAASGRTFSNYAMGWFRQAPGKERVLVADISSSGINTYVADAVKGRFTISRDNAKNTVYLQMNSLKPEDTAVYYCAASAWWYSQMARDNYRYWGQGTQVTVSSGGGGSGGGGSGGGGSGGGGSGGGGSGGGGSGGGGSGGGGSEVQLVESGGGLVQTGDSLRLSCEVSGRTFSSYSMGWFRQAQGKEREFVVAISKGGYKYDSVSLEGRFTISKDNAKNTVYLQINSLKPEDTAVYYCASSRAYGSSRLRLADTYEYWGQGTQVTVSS
0.018
